All figures here come from paper PMC5540273.

For each of the compounds below, state its %Inh.
Test system: CAMK1B
Settings: concentration: 1 μM, replicates: in singlicate; n = 1;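 also: KINOMEscan kinase panel screen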
The response must be a number in % with no trailing unit.

Record `Cc1cccc(NC(=O)Nc2ccc(Oc3ncnc4ccn(C)c34)cc2)c1` . Reported %Inh: 14

Record `COc1cccc(C2=C(Nc3ccc(Cl)c(C(=O)O)c3)C(=O)NC2=O)c1` . Reported %Inh: 28

Record `Cn1cc(-c2ccc3c(c2)CCN3C(=O)Cc2cccc(F)c2)c2c(N)ncnc21` . Reported %Inh: 34

Record `CCS(=O)(=O)c1ccc(OC)c(Nc2nccc(-c3c(-c4cccc(NC(=O)c5c(F)cccc5F)c4)nn4ncccc34)n2)c1` . Reported %Inh: 33

Record NCCCC(NC(=O)c1cc(Br)c(-c2ccnc3[nH]ccc23)s1)c1ccccc1.O=C(O)C(F)(F)F.O=C(O)C(F)(F)F (stereo not shown) . Reported %Inh: 10

Record `O=C(Nc1n[nH]c2nc(-c3ccc(O)cc3)ccc12)C1CC1` . Reported %Inh: 0

Record `Fc1ccc(-c2ncn(C3CCNCC3)c2-c2ccnc(Oc3ccc(-c4ccccc4)cc3)n2)cc1` . Reported %Inh: 4

Record `COc1cc(Nc2ncc3c(C)nc(-c4cc5ccccc5[nH]4)n3n2)cc(OC)c1OC` . Reported %Inh: 0

Record `O=C(Nc1cccc(-c2nn3ccccc3c2-c2ccnc(Nc3cccc(C(F)(F)F)c3)n2)c1)c1c(F)cccc1F` . Reported %Inh: 33

Record `c1ccc(-c2n[nH]cc2Nc2ccnc3ccccc23)nc1` . Reported %Inh: 49

Record `Cl.NC(=O)c1cccc(Nc2nccc(Nc3ccc(Oc4c(Cl)cccc4Cl)c(Cl)c3)n2)c1` . Reported %Inh: 0

Record `COC(=O)Nc1nc2cc(Oc3ccc(NC(=O)Nc4cc(C(F)(F)F)ccc4F)cn3)ccc2[nH]1.Cl.Cl` . Reported %Inh: 28

Record `CN1CCN(Cc2cccc(-c3ccc4c(Nc5ccc(Oc6ccccc6)cc5)ccnc4c3)c2)CC1` . Reported %Inh: 10

Record `O=C(Nc1cccc(-c2nn3ccccc3c2-c2ccnc(Nc3cccc(F)c3)n2)c1)c1c(F)ccc(F)c1Cl` . Reported %Inh: 21

Record `Cl.c1ccc(-c2ccc3c(Nc4ccc5[nH]ccc5c4)ccnc3c2)nc1` . Reported %Inh: 11

Record `COc1cccc(-c2ccc3c(NC(=O)C4CC4)n[nH]c3n2)c1` . Reported %Inh: 11

###

System: AURKC
Conditions: concentration: 1 μM, replicates: in singlicate; n = 1
OBSERVABLE: %Inh

Record Fc1ccc(-c2ncn(C3CCNCC3)c2-c2ccnc(Oc3ccc(-c4ccccc4)cc3)n2)cc1 [SB-245391] . Reported %Inh: 0%

Record CN1CCN(Cc2cccc(-c3ccc4c(Nc5ccc(Oc6ccccc6)cc5)ccnc4c3)c2)CC1 [GW578342] . Reported %Inh: 9%

Record `CC(=O)Nc1nc2cnc(Nc3cc(NC(=O)c4cccc(C5(C#N)CC5)c4Cl)ccc3C)nc2s1` . Reported %Inh: 0%

Record Clc1ccc(-c2nn3ncccc3c2-c2ccnc(Nc3ccc4c(c3)OCCO4)n2)cc1 [GW829116] . Reported %Inh: 0%

Record COc1ccc(Nc2nccc(NCCNC(=O)c3cc4ccccc4s3)n2)cc1 [GSK1379896] . Reported %Inh: 17%

Record CC(C)c1nc(-c2cccc(NS(=O)(=O)c3c(F)cccc3F)c2F)c(-c2ccnc(Nc3ccc(N4CCOCC4)nc3)n2)s1 [GSK2008607] . Reported %Inh: 53%

Record Cl.Cl.NCC(C(=O)Nc1cc(Br)c(-c2ccnc3[nH]ccc23)s1)c1ccccc1 (centres unmarked) [GSK1269851] . Reported %Inh: 53%

Record Cc1cccc(Nc2nc(N[C@H]3CCNC3)ncc2C(N)=O)c1.Cl [GSK2197149] . Reported %Inh: 58%

Record COc1cccc(-c2ccc3c(NC(=O)C4CC4)n[nH]c3n2)c1 [SB-710903] . Reported %Inh: 0%

Record Nc1ncc(-c2cccnc2)c2scc(-c3ccc4c(c3)CCN4C(=O)Cc3ccccc3)c12 [GSK683281] . Reported %Inh: 70%

Record c1ccc(Oc2ccc(Nc3ccnc4cc(-c5ccc(CNCCN6CCOCC6)o5)ccc34)cc2)nc1 [GW567145] . Reported %Inh: 9%

Record Cn1cc(-c2ccc3c(c2)CCN3C(=O)Cc2cccc(Cl)c2)c2c(N)ncnc21 [GSK2606590] . Reported %Inh: 65%

Record O=C(Nc1cccc(-c2nn3ncccc3c2-c2ccnc(Nc3ccccc3)n2)c1)c1c(F)cccc1F [GSK198271] . Reported %Inh: 64%

Record Nc1n[nH]c2cnc(-c3ccccc3)cc12 [SB-642124] . Reported %Inh: 100%

Record `COc1ccc(-c2coc3ccc(-c4nnc(SCc5ccc(OC)c(C(F)(F)F)c5)o4)cc23)cc1` . Reported %Inh: 7%

Record `Cc1ccc(C(=O)N2CC[C@@H](O)C2)cc1-n1c(C)cc(OCc2ccc(F)cc2F)c(Br)c1=O` . Reported %Inh: 0%

Record Cl.Cl.NCC(NCc1ccc(-c2ccnc3[nH]ccc23)s1)c1ccccc1 (centres unmarked) [GSK1321565] . Reported %Inh: 97.2%

###

For each of the molecules below, state its %Inh.
Test system: MAP3K2
Conditions: concentration: 1 μM, replicates: in singlicate; n = 1
The response must be a number in % with no trailing unit.

Record `CC(C)c1nc(-c2cccc(NS(=O)(=O)c3c(F)cccc3F)c2F)c(-c2ccnc(Nc3ccc(N4CCOCC4)nc3)n2)s1` . Reported %Inh: 97.7

Record `CCCCc1nn2ncccc2c1-c1ccnc(Nc2ccc(N3CCN(C)CC3)cc2)n1` . Reported %Inh: 37

Record O=C(NC1CCN(c2ccnc(Nc3ccc(F)cc3)n2)C1)c1cc2ccccc2s1 (centres unmarked) . Reported %Inh: 12

Record `O=C(Nc1n[nH]c2cc(-c3ccoc3)ccc12)C1CC1` . Reported %Inh: 3

Record `CN(C)Cc1ccc(-c2ccc3c(Nc4ccc(Oc5ccccn5)cc4)ccnc3c2)o1` . Reported %Inh: 0

Record `Cc1ccc(F)c(C(=O)Nc2cccc(-c3nn4ccccc4c3-c3ccnc(Nc4cccc(F)c4)n3)c2)c1F` . Reported %Inh: 16

Record COc1cccc(NC(=O)NC2CCN(c3ccnc(Nc4cc(OC)c(OC)c(OC)c4)n3)C2)c1 (centres unmarked) . Reported %Inh: 3

Record `O=C(Nc1ccccc1F)NC1CCN(c2ccnc(Nc3ccc(F)cc3)n2)CC1` . Reported %Inh: 0

###

For each of the molecules below, state its %Inh.
Test system: MARK4
Settings: concentration: 1 μM, replicates: in singlicate; n = 1

Record `Cn1cc(-c2[nH]c3cc(NC(=O)[C@H](N)C4CCCCC4)cc4c3c2C=NNC4=O)cn1` . Reported %Inh: 91.8%

Record Cn1cc(-c2ccc3c(c2)CCN3C(=O)Cc2cccc(F)c2)c2c(N)ncnc21 [GSK2603358] . Reported %Inh: 34%

Record O=C(NC1CCN(c2ccnc(Nc3ccc(F)cc3)n2)C1)c1cc2ccccc2s1 (centres unmarked) [GSK1379716] . Reported %Inh: 10%

Record CSc1cccc2c(-c3ccncn3)c(-c3ccc(F)cc3)nn12 [GW514786] . Reported %Inh: 0%

Record c1ccc(-c2cnc3nccnn23)cc1 [AH20685] . Reported %Inh: 0%

###

For each of the compounds below, state its %Inh.
Test system: PHKG1
Conditions: concentration: 1 μM, replicates: in singlicate; n = 1
The response must be a number in % with no trailing unit.

Record `O=C(Nc1cccc(-c2nn3ccccc3c2-c2ccnc(Nc3cccc(F)c3)n2)c1)c1c(F)ccc(F)c1Cl` . Reported %Inh: 0

Record `Cc1cccc(NC(=O)Nc2ccc(Oc3ncnc4ccn(C)c34)cc2)c1` . Reported %Inh: 0

Record `Oc1cc(Nc2ccnc3cc(I)ccc23)ccc1F` . Reported %Inh: 0

Record `COc1cc2c(cc1OCCN1CCNCC1)ncc1c3ccc(C#N)cc3[nH]c21` . Reported %Inh: 98.7

Record `CN1CCN(CCCNc2nccc(-c3c(-c4ccc(F)cc4)nn4cc(C(F)(F)F)ccc34)n2)CC1` . Reported %Inh: 0

Record `Nc1ncc(-c2ccc3nccc(-c4ccncc4)c3c2)cc1S(=O)(=O)N1CCOCC1` . Reported %Inh: 0

Record `Clc1ccc(-c2nn3ncccc3c2-c2ccnc(Nc3ccc4c(c3)OCCO4)n2)cc1` . Reported %Inh: 0

Record `COc1cc(Nc2nccc(-c3c(-c4cccc(NC(=O)c5c(F)cccc5F)c4)nn4ccccc34)n2)cc(OC)c1OC` . Reported %Inh: 4

###

Tested on: YSK1
Construct: gene STK25
Conditions: concentration: 1 μM, replicates: in singlicate; n = 1
OBSERVABLE: %Inh
A complete answer gives the number and then names the unit.

Record `CCS(=O)(=O)c1ccc(OC)c(Nc2nccc(-c3c(-c4cccc(NC(=O)c5c(F)cccc5F)c4)nn4ncccc34)n2)c1` . Reported %Inh: 0%

Record `CCn1c(-c2nonc2N)nc2c(C#CC(C)(C)O)nc(OC[C@H](N)c3ccccc3)cc21` . Reported %Inh: 0%

Record Cl.Cl.NCC(C(=O)Nc1cc(Br)c(-c2ccnc3[nH]ccc23)s1)c1ccccc1 (stereo not shown) . Reported %Inh: 0%

Record O=C(NC1CCN(c2ccnc(Nc3ccc(F)cc3)n2)C1)c1cc2ccccc2s1 (stereo not shown) . Reported %Inh: 19%
